test: activity coefficient (dimensionless); of the first substance listed, at infinite dilution; xn = mol fraction of the nth substance listed; settings: 298 K; 101.3 kPa; Liquid; Chromatography; x1 = 0
// class assignment uses activity coefficient with these ranges: low band = under 3, middle band = from 3 up to 30, high band = 30 and over

Exercise: Which activity coefficient category applies to C=CCCCCCCCCC [1-undecene] + CCCCCCCC[n+]1ccn(C)c1.F[B-](F)(F)F here?
Solution: middle band

Exercise: Which activity coefficient category applies to CCCCC [pentane] + CCCCCCCC[n+]1ccn(C)c1.F[B-](F)(F)F here?
Solution: middle band

Exercise: Which activity coefficient category applies to C=CCCCCCCCCCC [1-dodecene] + CCCCCCCC[n+]1ccn(C)c1.F[B-](F)(F)F here?
Solution: high band

Exercise: Which activity coefficient category applies to C1=CCCC=C1 [1,3-cyclohexadiene] + CCCCCCCC[n+]1ccn(C)c1.F[B-](F)(F)F here?
Solution: low band

Exercise: Which activity coefficient category applies to CCCCCCCCCCC [undecane] + CCCCCCCC[n+]1ccn(C)c1.F[B-](F)(F)F here?
Solution: high band

Exercise: Which activity coefficient category applies to CCCCCCO [hexan-1-ol] + CCCCCCCC[n+]1ccn(C)c1.F[B-](F)(F)F here?
Solution: low band

Exercise: Which activity coefficient category applies to CCCCCCCCCCCC [dodecane] + CCCCCCCC[n+]1ccn(C)c1.F[B-](F)(F)F here?
Solution: high band

Exercise: Which activity coefficient category applies to CCCCCC [hexane] + CCCCCCCC[n+]1ccn(C)c1.F[B-](F)(F)F here?
Solution: middle band

Exercise: Which activity coefficient category applies to CCO [ethanol] + CCCCCCCC[n+]1ccn(C)c1.F[B-](F)(F)F here?
Solution: low band
